Reported aptazyme ON/OFF ratio values for a set of variants
B1: Pistol ribozyme (parent)
chain: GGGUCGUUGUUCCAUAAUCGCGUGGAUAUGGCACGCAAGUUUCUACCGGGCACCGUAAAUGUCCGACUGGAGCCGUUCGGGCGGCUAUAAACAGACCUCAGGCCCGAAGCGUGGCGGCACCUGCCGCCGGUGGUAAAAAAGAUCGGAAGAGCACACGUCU

- Variants of: B1
- Procedure Details: aptazyme ON/OFF ratio, guanine; higher = stronger switching; co-transcriptional cleavage with and without guanine
Give the figure by itself; no unit, no explanation.

                               mut          quantity_name  result
0  U7A U8C G9A U10G U11A C12A C13U  aptazyme ON/OFF ratio    1.24
1               U8G U10G U11C C12U  aptazyme ON/OFF ratio    1.02
2       U7G U8G G9C U11C C12G C13U  aptazyme ON/OFF ratio    1.39
3       U7G U8C G9A U10C U11A C13A  aptazyme ON/OFF ratio    1.18

// moving on: another record for aptazyme ON/OFF ratio
Could you tell me which aptazyme ON/OFF ratio is on file for U7C U8C U10C U11A C12U C13G ?
1.25
